SYSTEM TESTED: IRAK4 (Homo sapiens (Human))
Sequence (Q9NWZ3 whole entry): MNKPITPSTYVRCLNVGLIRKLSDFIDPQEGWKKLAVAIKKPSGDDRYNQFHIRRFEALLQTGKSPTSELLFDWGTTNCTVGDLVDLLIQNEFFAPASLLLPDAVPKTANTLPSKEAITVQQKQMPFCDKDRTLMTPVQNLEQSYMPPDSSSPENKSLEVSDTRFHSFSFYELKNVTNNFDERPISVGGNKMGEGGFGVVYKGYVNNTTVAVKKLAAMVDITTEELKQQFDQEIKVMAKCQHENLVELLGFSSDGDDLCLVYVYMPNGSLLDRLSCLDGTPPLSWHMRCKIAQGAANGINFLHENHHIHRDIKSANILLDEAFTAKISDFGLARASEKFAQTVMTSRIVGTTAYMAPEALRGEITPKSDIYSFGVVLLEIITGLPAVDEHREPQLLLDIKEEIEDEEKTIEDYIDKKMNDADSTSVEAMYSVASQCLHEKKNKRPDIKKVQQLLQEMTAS
TEST DETAILS: hPBMC IRAK4 degradation flow assay
Assay type: cell-based
CONDITIONS USED: hPBMC monocyte, 20 hrs; read-out: IRAK4 degradation in hPBMC monocyte: DC50
QUANTITY MEASURED: DC50

1) C[C@@H]1CN(c2ccn3ncc(C(=O)Nc4cn([C@H]5CC[C@H](CN6CCC(OCC#Cc7cccc8c7n(C)c(=O)n8C7CCC(=O)NC7=O)CC6)CC5)nc4C(F)F)c3n2)C[C@H](C)O1 (some centres unmarked) :: < 10 nM
2) Cn1c(=O)n(C2CCC(=O)NC2=O)c2cccc(C#CCCCNC[C@H]3CC[C@H](n4cc(NC(=O)c5cnn6ccc(N7C[C@H]8C[C@@H]7CO8)nc56)c(C(F)F)n4)CC3)c21 (some centres unmarked) :: < 10 nM
3) Cn1c(=O)n(C2CCC(=O)NC2=O)c2cccc(CCCOC3CCN(CCCCn4ncc(NC(=O)c5cnn6ccc(N7CCOCC7)nc56)c4C(F)F)CC3)c21 (centres unmarked) :: 100 to 1000 nM
4) Cn1c(=O)n(C2CCC(=O)NC2=O)c2cccc(CCOC3CC4(CCN(C[C@H]5CC[C@H](n6cc(NC(=O)c7cnn8ccc(N9C[C@H]%10C[C@@H]9CO%10)nc78)c(C(F)F)n6)CC5)CC4)C3)c21 (some centres unmarked) :: < 10 nM
5) C[C@@H](CCc1cccc2c1n(C)c(=O)n2C1CCC(=O)NC1=O)OC1CCN(C[C@H]2CC[C@H](n3cc(NC(=O)c4cnn5ccc(N6C[C@H]7C[C@@H]6CO7)cc45)c(C(F)F)n3)CC2)CC1 (some centres unmarked) :: < 10 nM

* * *

System: OCI-LY10
TEST DETAILS: CTG Cell Viability Assay - OCI-LY10
Type: cell-based, human
CONDITIONS USED: Homo sapiens, OCI-Ly10, 96 h, OCI-LY10, 4 days; read-out: CTG Cell Viability Assay - OCI-LY10: Average external-IC50
Items are presented alongside their recorded IC50.
QUANTITY MEASURED: IC50

1. CN(CCCOCCCc1cccc2c1n(C)c(=O)n2C1CCC(=O)N(C)C1=O)C[C@H]1CC[C@H](n2cc(NC(=O)c3coc(-c4ccnc(NCC5CC5)c4)n3)c(C(F)F)n2)CC1 (some centres unmarked) [I-246] :: > 1000 nM
2. CN(CC[C@@H]1CN(CCCc2cccc3c2n(C)c(=O)n3C2CCC(=O)NC2=O)CCO1)C[C@H]1CC[C@H](n2cc(NC(=O)c3coc(-c4ccnc(NCC5CC5)c4)n3)c(C(F)F)n2)CC1 (some centres unmarked) [I-116] :: > 1000 nM
3. Cn1c(=O)n(C2CCC(=O)NC2=O)c2cccc(CCCOC3CCN(C[C@H]4CC[C@H](n5cc(NC(=O)c6cnn7ccc(N8CCC(O)CC8)nc67)c(C(F)F)n5)CC4)CC3)c21 (some centres unmarked) [I-157] :: > 1000 nM
4. CN1C(=O)C(C2CCC(=O)NC2=O)c2cccc(CCCOC3CCN(C[C@H]4CC[C@H](n5cc(NC(=O)c6cnn7ccc(N8CCC(C)(O)CC8)nc67)c(C(F)F)n5)CC4)CC3)c21 (some centres unmarked) [I-286] :: > 1000 nM
5. Cn1c(=O)n(C2CCC(=O)NC2=O)c2cccc(CCCOC3CCN(C[C@H]4CC[C@H](n5cc(NC(=O)c6cnn7ccc(N8CCNCC8)nc67)c(C(F)F)n5)CC4)CC3)c21 (some centres unmarked) [I-125] :: > 1000 nM
6. CC[C@@H]1CC(=O)N[C@@H]1COc1ncc(C#C[C@H]2CC[C@H](CN3CCC(OCCCc4cccc5c4n(C)c(=O)n5C4CCC(=O)NC4=O)CC3)CC2)c2cc(C(N)=O)c(OC)cc12 (some centres unmarked) [I-229] :: > 1000 nM
7. O=C1CCC(N2C(=O)c3cccc(NCCCOC[C@@H]4CN(C[C@H]5CC[C@H](n6cc(NC(=O)c7coc(-c8ccnc(NCC9CC9)c8)n7)c(C(F)F)n6)CC5)CCO4)c3C2=O)C(=O)N1 (some centres unmarked) [I-353] :: 100 to 500 nM
8. O=C1CCC(N2C(=O)c3cccc(NCCCOC4CCN(C[C@H]5CC[C@H](n6cc(NC(=O)c7cnn8ccc(N9CCOCC9)nc78)c(C(F)F)n6)CC5)CC4)c3C2=O)C(=O)N1 (some centres unmarked) [I-208] :: < 50 nM
9. O=C1CCC(N2C(=O)c3cccc(NCC4CCC5(CC4)CN(C[C@H]4CC[C@H](n6cc(NC(=O)c7cnn8ccc(N9C[C@H]%10C[C@@H]9CO%10)nc78)c(C(F)F)n6)CC4)C5)c3C2=O)C(=O)N1 (some centres unmarked) [I-552] :: < 50 nM
10. Cn1c(=O)n(C2CCC(=O)NC2=O)c2cccc(CCC(=O)C3CC4(CCN(C[C@H]5CC[C@H](n6cc(NC(=O)c7cnn8ccc(N9C[C@H]%10C[C@@H]9CO%10)nc78)c(C(F)F)n6)CC5)CC4)C3)c21 (some centres unmarked) [I-415] :: > 1000 nM
11. CN(CCCN(C)C[C@H]1CC[C@H](n2cc(NC(=O)c3coc(-c4ccnc(NCC5CC5)c4)n3)c(C(F)F)n2)CC1)Cc1cccc2c1n(C)c(=O)n2C1CCC(=O)NC1=O (some centres unmarked) [I-242] :: 500 to 1000 nM
12. CN(CC1CCN(c2cccc3c2C(=O)N(C2CCC(=O)NC2=O)C3=O)CC1)C[C@H]1CC[C@H](n2cc(NC(=O)c3cnn4ccc(N5CCOCC5)nc34)c(C(F)F)n2)CC1 (some centres unmarked) [I-220] :: > 1000 nM
13. CC[C@H]1C(COc2ncc(C#C[C@H]3CC[C@H](CN(C)CCN4CCO[C@H](CCNc5cccc6c5C(=O)N(C5CCC(=O)NC5=O)C6=O)C4)CC3)c3cc(C(N)=O)c(OC)cc23)NC(=O)[C@H]1F (some centres unmarked) [I-334] :: 100 to 500 nM
14. O=C1CCC(N2C(=O)c3cccc(NCCCOC[C@@H]4CN(Cc5ccc(-n6cc(NC(=O)c7coc(-c8ccnc(NCC9CC9)c8)n7)c(C(F)F)n6)cc5)CCO4)c3C2=O)C(=O)N1 (some centres unmarked) [I-393] :: 50 to 100 nM
15. CN1C(=O)C(C2CCC(=O)NC2=O)c2cccc(CCCOC3CCN(C[C@H]4CC[C@H](n5cc(NC(=O)c6cnn7ccc(N8CC[C@H](O)C8)nc67)c(C(F)F)n5)CC4)CC3)c21 (some centres unmarked) [I-282] :: > 1000 nM
16. O=C1CCC(N2C(=O)c3cccc(NCCCCC[C@@H]4CN(C[C@H]5CC[C@H](n6cc(NC(=O)c7cnn8ccc(N9C[C@H]%10C[C@@H]9CO%10)nc78)c(C(F)F)n6)CC5)CCO4)c3C2=O)C(=O)N1 (some centres unmarked) [I-460] :: 50 to 100 nM
17. Cn1c(=O)n(C2CCC(=O)NC2=O)c2cccc(C#CCN3CCC4(CC3)CN(C[C@H]3CC[C@H](n5cc(NC(=O)c6cnn7ccc(N8C[C@H]9C[C@@H]8CO9)nc67)c(C(F)F)n5)CC3)C4)c21 (some centres unmarked) [I-485] :: > 1000 nM
18. O=C1CCC(N2C(=O)c3cccc(NCC4CC5(CCN(Cc6ccc(-n7cc(NC(=O)c8cnn9ccc(N%10C[C@H]%11C[C@@H]%10CO%11)nc89)c(C(F)F)n7)cc6)CC5)C4)c3C2=O)C(=O)N1 (some centres unmarked) [I-462] :: < 50 nM
19. CN(C[C@H]1CC[C@H](n2cc(NC(=O)c3cnn4ccc(N5CCOCC5)nc34)c(C(F)F)n2)CC1)C1CCC(N(C)c2cccc3c2C(=O)N(C2CCC(=O)NC2=O)C3=O)CC1 (some centres unmarked) [I-222] :: 100 to 500 nM
20. CN(CCOCCOCCOC12CC3CC(CC(C3)C1)C2)C[C@H]1CC[C@H](n2cc(NC(=O)c3coc(-c4ccnc(NCC5CC5)c4)n3)c(C(F)F)n2)CC1 [I-174] :: > 1000 nM

* * *

Items are presented alongside their recorded DC50.
SYSTEM TESTED: IRAK4 (Homo sapiens (Human))
TEST DETAILS: IRAK4 MSD degradation in OCI-LY10
Type: cell-based
CONDITIONS USED: OCI-LY10, 4 hrs, MSD; read-out: IRAK4 MSD degradation in OCI-LY10 at 4 hrs: Average external-Abs DC50
QUANTITY MEASURED: DC50

1) CN(C[C@H]1CC[C@H](n2cc(NC(=O)c3cnn4ccc(N5CCOCC5)nc34)c(C(F)F)n2)CC1)C1CCC(Nc2cccc3c2C(=O)N(C2CCC(=O)NC2=O)C3=O)CC1 (some centres unmarked) [I-221] :: < 10 nM
2) CN(CCCOCCCNc1cccc2c1C(=O)N(C1CCC(=O)NC1=O)C2=O)Cc1ccc(-n2cc(NC(=O)c3coc(-c4ccnc(NCC5CC5)c4)n3)c(C(F)F)n2)cc1 (centres unmarked) [I-392] :: 100 to 1000 nM
3) Cn1c(=O)n(C2CCC(=O)NC2=O)c2cccc(CCCOCCCN(C[C@H]3CC[C@H](n4cc(NC(=O)c5coc(-c6ccnc(NCC7CC7)c6)n5)c(C(F)F)n4)CC3)C3CC3)c21 (some centres unmarked) [I-64] :: 100 to 1000 nM
4) CC[C@@H]1[C@H](F)C(=O)N[C@@H]1COc1ccc(-c2ncn(CN(C)CCCOCCCc3cccc4c3n(C)c(=O)n4C3CCC(=O)NC3=O)n2)c2cc(C(N)=O)c(OC)cc12 (some centres unmarked) [I-188] :: 100 to 1000 nM
5) CN(C[C@H]1CC[C@H](n2cc(NC(=O)c3cnn4ccc(N5CCOCC5)nc34)c(C(F)F)n2)CC1)C1CCC(N(C)c2cccc3c2C(=O)N(C2CCC(=O)NC2=O)C3=O)CC1 (some centres unmarked) [I-222] :: 10 to 100 nM
6) CN(CCCOCCc1ccc2c(c1)n(C)c(=O)n2C1CCC(=O)NC1=O)C[C@H]1CC[C@H](n2cc(NC(=O)c3coc(-c4ccnc(NCC5CC5)c4)n3)c(C(F)F)n2)CC1 (some centres unmarked) [I-129] :: < 10 nM
7) CN(CCC1CCN(Cc2cccc3c2n(C)c(=O)n3C2CCC(=O)NC2=O)CC1)C[C@H]1CC[C@H](n2cc(NC(=O)c3coc(-c4ccnc(NCC5CC5)c4)n3)c(C(F)F)n2)CC1 (some centres unmarked) [I-79] :: 10 to 100 nM
8) O=C1CCC(N2C(=O)c3cccc(NCCCOC4CCN(C[C@H]5CC[C@H](n6cc(NC(=O)c7cnn8ccc(N9CC%10CC(C9)O%10)nc78)c(C(F)F)n6)CC5)CC4)c3C2=O)C(=O)N1 (some centres unmarked) [I-344] :: 100 to 1000 nM
9) CN(CCCOCCCc1ccc2c(c1)n(C)c(=O)n2C1CCC(=O)NC1=O)C[C@H]1CC[C@H](n2cc(NC(=O)c3coc(-c4ccnc(NCC5CC5)c4)n3)c(C(C)(C)O)n2)CC1 (some centres unmarked) [I-83] :: 100 to 1000 nM
10) Cn1c(=O)n(C2CCC(=O)NC2=O)c2cccc(CCCOCCCN3CCC(n4cc(NC(=O)c5cnn6ccc(N7CCNCC7)nc56)c(C(F)F)n4)CC3)c21 (centres unmarked) [I-180] :: 10 to 100 nM
11) CN(CCCOCCCN(C)C(=O)c1ccc(CNCc2ccc(-c3ccc4c(cnn4CC4CC4)c3)cc2)cc1)C[C@H]1CC[C@H](n2cc(NC(=O)c3coc(-c4ccnc(NCC5CC5)c4)n3)c(C(F)F)n2)CC1 [I-133] :: > 1000 nM
